These data points were gathered from PubChem BioAssay (NCI).

Tested on: A549/ATCC NSCLC
Experiment: NCI-60 one-dose screen, 48 h (100 = growth as untreated, 0 = no growth, -100 = all killed)
Details: 10 µM unless noted
The panel holds about 83,000 compounds, 20% with a hit somewhere; the sample as a whole holds those more often. Active and inactive are the calls of the source. The calls were made as follows: active = growth percent below 10; inactive = the rest.
Please respond with reported growth for every item in the list.

Examples with answers:
Molecule: COc1ccc(-c2cc(/C=C/C(=O)c3ccc(OC)c(OC)c3)[nH]n2)cc1
growth: 29.2% (inactive)
//
Molecule: N#CCCCCCn1c2ccccc2c2c3[nH]c(=O)[nH]c(=O)c3c3c4ccccc4n(CCCCCC#N)c3c21
growth: 73.7% (inactive)
//
Molecule: CCCCCC1CCCCN1C(=O)OCC (centres undefined)
growth: 105% (inactive)
//
Molecule: Cc1cccc2c1NC(=O)[C@@]21[C@H](C(=O)c2ccccc2)[C@]2(C(=O)Nc3ccccc32)[C@H]2CCCN21
growth: 15% [100 µM] (inactive)
//
Molecule: O=C(/C(=C(\C(=O)c1ccccc1)c1ccccc1)c1ccccc1)c1ccccc1
growth: 28.9% (inactive)
//
Molecule: O=C1/C(=C\c2ccc(Br)o2)SC(=S)N1CCc1ccc(O)cc1
growth: 100% (inactive)

Would you mind giving growth for every molecule in the list below?
1. CCCCC[C@H]1C/C=C2/C(=O)C(Cl)=C[C@@H]2C/C=C\CCCC(=O)O1
2. O=c1c(CNc2ccc(S(=O)(=O)Nc3nccs3)cc2)coc2ccccc12
3. C[C@@H](Oc1ccc(C(=O)NS(=O)(=O)C(C)(C)C)cc1C(F)(F)F)c1ccc(Oc2ccccc2)cn1

["-35.6% (active)", "95.5% (inactive)", "74.8% (inactive)"]
